These data points were gathered from ChEMBL document CHEMBL1125617.

target: Adenosine A2 receptor (Rattus norvegicus, UniProt P29276+P30543); test: Binding affinity towards adenosine A2 receptor; format: protein assay
Class (by Ki) -- lowest = under 0.4 µM, middle = from 0.4 µM up to 4 µM, highest = 4 µM and over

COc1ccc2c(c1)C(Nc1ncnc3c1ncn3[C@@H]1O[C@H](CO)[C@@H](O)[C@H]1O)CCC2 (stereo in doubt; 31): middle
OC[C@H]1O[C@@H](n2cnc3c(NC4COc5ccccc5C4)ncnc32)[C@H](O)[C@@H]1O (some centres not stated): middle
COc1ccc2c(c1)C(Nc1ncnc3c1ncn3[C@@H]1O[C@H](CO)[C@@H](O)[C@H]1O)CCC2 (single isomer, unassigned; isomer B): lowest

Kindly state the category for this molecule: OC[C@H]1O[C@@H](n2cnc3c(NC4CCCc5c(O)cccc54)ncnc32)[C@H](O)[C@@H]1O (some centres not stated) lowest

What do you get for COc1cccc2c1CCCC2Nc1ncnc2c1ncn2[C@@H]1O[C@H](CO)[C@@H](O)[C@H]1O (some centres not stated) ? lowest

What do you get for CCCCCOc1ccc2c(c1)CCC2Nc1ncnc2c1ncn2[C@@H]1O[C@H](CO)[C@@H](O)[C@H]1O (some centres not stated) ? highest

What do you get for OC[C@H]1O[C@@H](n2cnc3c(NCC4(O)CCCCc5ccccc54)ncnc32)[C@H](O)[C@@H]1O (some centres not stated) ? middle

What do you get for OC[C@H]1O[C@@H](n2cnc3c(NCC4CCCCc5ccccc54)ncnc32)[C@H](O)[C@@H]1O (some centres not stated) ? middle

What do you get for CCCOc1cccc2c1CCCC2Nc1ncnc2c1ncn2[C@@H]1O[C@H](CO)[C@@H](O)[C@H]1O (some centres not stated) ? lowest

What do you get for OC[C@H]1O[C@@H](n2cnc3c(NCC4CCCc5ccccc54)ncnc32)[C@H](O)[C@@H]1O (some centres not stated) ? lowest

What do you get for CCOc1ccc2c(c1)CCC2Nc1ncnc2c1ncn2[C@@H]1O[C@H](CO)[C@@H](O)[C@H]1O (some centres not stated) ? highest

What do you get for CCCOc1ccc2c(c1)C(Nc1ncnc3c1ncn3[C@@H]1O[C@H](CO)[C@@H](O)[C@H]1O)CCC2 (some centres not stated) ? highest

What do you get for OC[C@H]1O[C@@H](n2cnc3c(NC4CCc5cc6c(cc54)OCO6)ncnc32)[C@H](O)[C@@H]1O (some centres not stated) ? highest

What do you get for COc1ccc2c(c1)C(Nc1ncnc3c1ncn3[C@@H]1O[C@H](CO)[C@@H](O)[C@H]1O)CCC2 (single isomer, unassigned; isomer A) ? highest

What do you get for `COc1cc2c(cc1OC)CC(Nc1ncnc3c1ncn3[C@@H]1O[C@H](CO)[C@@H](O)[C@H]1O)C2` ? middle

What do you get for OC[C@H]1O[C@@H](n2cnc3c(NC4CCCCc5ccccc54)ncnc32)[C@H](O)[C@@H]1O (some centres not stated) ? lowest

What do you get for CCCCOc1ccc2c(c1)CCC2Nc1ncnc2c1ncn2[C@@H]1O[C@H](CO)[C@@H](O)[C@H]1O (stereo in doubt; 15) ? highest

What do you get for OC[C@H]1O[C@@H](n2cnc3c(NC4CCc5ccccc54)ncnc32)[C@H](O)[C@@H]1O (some centres not stated) ? middle

What do you get for CCCOc1ccc2c(c1)CCC2Nc1ncnc2c1ncn2[C@@H]1O[C@H](CO)[C@@H](O)[C@H]1O (some centres not stated) ? highest

What do you get for OC[C@H]1O[C@@H](n2cnc3c(NC4CCOc5ccccc54)ncnc32)[C@H](O)[C@@H]1O (some centres not stated) ? lowest

What do you get for OC[C@H]1O[C@@H](n2cnc3c(NCC4CCc5ccccc54)ncnc32)[C@H](O)[C@@H]1O (some centres not stated) ? lowest

What do you get for OC[C@H]1O[C@@H](n2cnc3c(NC4CCCc5ccc(OCc6ccccc6)cc54)ncnc32)[C@H](O)[C@@H]1O (some centres not stated) ? highest
